# Tested on: HCC1569
# assay procedure: cell number relative to DMSO (% of DMSO); higher = more cells (less growth inhibition / toxicity)
# test settings: concentration: 10 µM; 24 h
Decision: cell number compared against 100; not below it gives T, below it gives F.

[
  {
    "compound": "CCCCCC(O)C=CC=CCC=CC=CC(O)CCCC(=O)O (stereo not given)",
    "test target": "HCC1569",
    "label value": "T"
  },
  {
    "compound": "S=C(Nc1ccccc1)Nc1nccs1",
    "test target": "HCC1569",
    "label value": "F"
  }
]

Pending compound:
Check if cell number >= 100 (inclusive). Item: `O=[N+]([O-])c1ccc(Nc2nc(N3CCOCC3)nc(N3CCOCC3)n2)cc1`
F

* * *

# System: TDF
# assay procedure: cell number relative to DMSO (% of DMSO); higher = more cells (less growth inhibition / toxicity)
# test settings: concentration: 10 µM; 24 h
We use 100 as the dividing line for cell number: on or above the line is yes, below is no.

[
  {
    "compound": "CCCCCCCCCCCCCCCC(=O)NCC(COP(=O)([O-])OCC[N+](C)(C)C)OC (racemic)",
    "test target": "TDF",
    "label value": "no"
  },
  {
    "compound": "O=C(CCCN1CCC(O)(c2ccc(Cl)cc2)CC1)c1ccc(F)cc1",
    "test target": "TDF",
    "label value": "no"
  },
  {
    "compound": "O=C(CCCCCCc1ccccc1)c1ncc(-c2ccccn2)o1 [7-phenyl-1-[5-(2-pyridinyl)-1,3-oxazol-2-yl]-1-heptanone]",
    "test target": "TDF",
    "label value": "yes"
  },
  {
    "compound": "COC1C=CC=C(C)C(=O)NC2=CC(=O)C=C(C2=O)C(OC)C(C)CC(OC)C(OC)C(C)C=C(C)C1OC(N)=O (centres undefined)",
    "test target": "TDF",
    "label value": "no"
  }
]

Is cell number for `Nc1ccc(S(=O)(=O)Nc2ccnn2-c2ccccc2)cc1` at or above 100?
yes

Hi, just wondering whether CC(C)Cc1ccc(C(C)C(=O)O)cc1 (stereo not drawn) [S(+)-Ibuprofen] shows cell number of 100 or higher.
yes

State whether the measured cell number reaches 100, counting equality as reaching it, for CN(C)CCOc1cc(-c2cn[nH]c2)ccc1NC(=O)C1COc2ccccc2O1 (centres undefined)
no

Hello, I need to know if `CC(C)(C=O)Cc1cc(C(C)(C)C)c(O)c(C(C)(C)C)c1` has measured cell number not below 100. Thanks!
yes

* * *

# Tested on: HCC1569
# assay procedure: H1.0 immunofluorescence intensity relative to DMSO (% of DMSO); higher = stronger H1.0 induction, active = 140 or more
# test settings: concentration: 10 µM; 24 h
experimental endpoint: H1.0 immunofluorescence intensity
# output: bare number, no unit

# lookup: H1.0 immunofluorescence intensity of O=c1[nH]c(=O)n(C2CC(O)C(CO)O2)cc1F (configuration not stated)
119

Would you kindly share the measured H1.0 immunofluorescence intensity for CCCCCCCCC=CCCCCCCCCCCCCC(=O)O [14(Z)-Tricosenoic acid] ?
101

For the compound Oc1cc(O)c2c(c1)OC(c1ccc(O)c(O)c1)C(O)C2 (single isomer, unassigned; (-)) [(-)-Epicatechin] , what H1.0 immunofluorescence intensity is on record?
89.2

Looking for the measured H1.0 immunofluorescence intensity of CCCCCCCC/C=C\CCCCCCCC(=O)NCc1ccc(O)c(OC)c1 [(9Z)-N-(4-hydroxy-3-methoxybenzyl)-9-octadecenamide] , can you help?
171

Which H1.0 immunofluorescence intensity value is on record for CC(C)CC(NC(=O)C(COC(C)(C)C)NC(=O)C(Cc1ccc(O)cc1)NC(=O)C(CO)NC(=O)C(Cc1c[nH]c2ccccc12)NC(=O)C(Cc1cnc[nH]1)NC(=O)C1CCC(=O)N1)C(=O)NC(CCCN=C(N)N)C(=O)N1CCCC1C(=O)NNC(N)=O (configuration not stated) ?
103

Need H1.0 immunofluorescence intensity of `C[n+]1cccc(C(=O)O)c1.[Cl-]` , thanks.
92.9

Name the reported H1.0 immunofluorescence intensity value associated with the compound `COC(=O)Nc1nc2ccc(C(=O)c3ccccc3)cc2[nH]1`
127

* * *

# Test system: TDF
# assay procedure: H1.0 immunofluorescence intensity relative to DMSO (% of DMSO); higher = stronger H1.0 induction, active = 120 or more
# test settings: concentration: 10 µM; 24 h
experimental endpoint: H1.0 immunofluorescence intensity
Just the number, please, no unit attached.

As a guide, the following entries are already answered.
[
  {
    "compound": "CS(=O)(=O)O.Cc1ccc(NC(=O)c2ccc(CN3CCN(C)CC3)cc2)cc1Nc1nccc(-c2cccnc2)n1",
    "test target": "TDF",
    "H1.0 immunofluorescence intensity": 107
  },
  {
    "compound": "CC(C)c1cc(C(C)C)c(CC(=O)NS(=O)(=O)Oc2c(C(C)C)cccc2C(C)C)c(C(C)C)c1",
    "test target": "TDF",
    "H1.0 immunofluorescence intensity": 89.8
  },
  {
    "compound": "CC1CCC2C(C)C(OC(=O)CCC(=O)O)OC3OC4(C)CCC1C32OO4 (configuration not stated) [Artesunate]",
    "test target": "TDF",
    "H1.0 immunofluorescence intensity": 99.1
  },
  {
    "compound": "CCOC(=O)c1c2c3c(cccc3[nH]c1=O)C(=O)c1ccccc1-2",
    "test target": "TDF",
    "H1.0 immunofluorescence intensity": 94.2
  }
]

What H1.0 immunofluorescence intensity value was documented for this compound, `CS(=O)(=O)CCNCc1nc(-c2ccc3ncnc(Nc4ccc(OCc5cccc(F)c5)c(Cl)c4)c3c2)cs1.Cl.Cl` ?
99.4

I have this compound here, `Cc1cc2c(s1)=Nc1ccccc1NC=2N1CCN(C)CC1` , and I need its recorded H1.0 immunofluorescence intensity.
92.2

Entry CCCCCN(CCCCC)C(=O)C(CCC(=O)O)NC(=O)c1ccc(Cl)c(Cl)c1 (configuration not stated) [Lorglumide] : reported H1.0 immunofluorescence intensity = ?
102

Reported H1.0 immunofluorescence intensity for Cc1oncc1C(=O)Nc1ccc(C(F)(F)F)cc1 [Leflunomide] : what is it?
97.1

Field request: H1.0 immunofluorescence intensity | item: CCCCCCCCCCCCCCCCCC(=O)NCC(COP(=O)([O-])OCC[N+](C)(C)C)OC (racemic)
95.2

Dear colleague, I am looking for the recorded H1.0 immunofluorescence intensity of the following compound: `Cc1cnc(C(=O)O)c[n+]1[O-]`
95.2

* * *

# System: HCC1569
# assay procedure: H1.0 immunofluorescence intensity relative to DMSO (% of DMSO); higher = stronger H1.0 induction, active = 140 or more
# test settings: concentration: 10 µM; 24 h
Below, each of the compounds is paired with its reported H1.0 immunofluorescence intensity value.
Kindly provide the number alone.

Fill in the blank: the reported H1.0 immunofluorescence intensity of `c1cc(-c2cnn3cc(-c4ccc(N5CCNCC5)cc4)cnc23)c2cccnc2c1` is ____.
100

I am curious: what H1.0 immunofluorescence intensity value has been reported for O=C(O)C=Cc1c[nH]c2ccccc12 [3-Beta-Indoleacrylic acid] ?
95.1

* * *

# Tested on: TDF
# assay procedure: H1.0 immunofluorescence intensity relative to DMSO (% of DMSO); higher = stronger H1.0 induction, active = 120 or more
# test settings: concentration: 10 µM; 24 h
Lab note: anything with H1.0 immunofluorescence intensity at or over 100 counts as y; the rest go in n.

[
  {
    "molecule": "CCCCCCCCCCCCCCCC(=O)NCCO [Palmitylethanolamide]",
    "label value": "n"
  },
  {
    "molecule": "CC(Nc1nc(N2CCCC2)nc2ccccc12)c1ccccc1 (configuration not stated) [N-(1-phenylethyl)-N-[2-(1-pyrrolidinyl)-4-quinazolinyl]amine]",
    "label value": "y"
  },
  {
    "molecule": "CCCS(=O)(=O)Nc1ccc(F)c(C(=O)c2c[nH]c3ncc(Cl)cc23)c1F",
    "label value": "y"
  },
  {
    "molecule": "O=c1cc(-c2ccc(O)cc2)oc2cc(OC3OC(CO)C(O)C(O)C3O)c(C3OC(CO)C(O)C(O)C3O)c(O)c12 (configuration not stated)",
    "label value": "y"
  },
  {
    "molecule": "O=C(O)CCCC(O)C=CC=CC=CC(O)CC=CCCCCCO (configuration not stated) [20-Hydroxy-leukotriene B4]",
    "label value": "n"
  },
  {
    "molecule": "O=c1c2ccccc2nc2n1CCc1c-2[nH]c2ccccc12",
    "label value": "n"
  },
  {
    "molecule": "Nc1ncnc2c1cnn2-c1ccccc1",
    "label value": "n"
  },
  {
    "molecule": "O=Nc1ccc2oc(=O)ccc2c1",
    "label value": "n"
  }
]

H1.0 immunofluorescence intensity >= 100 for `CC(C)=CCCC(C)=CCCC(C)=CCCC(C)=CCCC(C)=CCCC(C)=CCCC(C)=CCCC(C)=CCCC(C)=CCO` ?
n

Quick check, H1.0 immunofluorescence intensity >= 100? CNCCCC12CCC(c3ccccc31)c1ccccc12.Cl [Maprotiline hydrochloride]
y

Decide: H1.0 immunofluorescence intensity of Cl.NC12CC3CC(CC(C3)C1)C2 [Amantadine.HCl] >= 100?
n

Entry COc1ccccc1N1CCN(CC(O)COc2cccc3ccccc23)CC1.Cl.Cl (configuration not stated) [Naftopidil.2HCl] : is its H1.0 immunofluorescence intensity no less than 100?
n

Source listed as the supplement of paper PMC7156485.
